The origin of these recorded values is patent EP4582447A1.

# assayed-target: T1, Human VEGFA165 (human, UniProt P15692-4 27-191)
# T1 construct: treated as the same molecule; also called antigen VEGFA
# T1 sequence (P15692 other isoform, or with tags, fused parts or gaps limits assumed): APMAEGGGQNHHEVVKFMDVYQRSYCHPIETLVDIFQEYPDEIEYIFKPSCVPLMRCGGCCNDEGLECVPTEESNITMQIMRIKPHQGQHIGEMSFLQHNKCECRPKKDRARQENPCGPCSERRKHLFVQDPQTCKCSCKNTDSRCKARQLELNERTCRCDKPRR
# protocol-details: SPR Biacore 8K, VEGFA165 amine-coupled on CM5, nanobody as analyte, 1:1 model
The following binders are shown together with reported koff values.
Enter your answer as a number in s⁻¹; do not include the unit.

Would you please look over these solved cases?
>>> value_measured("V13 (VHH, Purified with C-terminal GGGGS-6×His; also called candidate antibody V13) VHH: QLQLVESGGGSVQPGGSLRLSCEVSGRTFTSYTMGWFRQAPGKEREFVVAISKGGYKYDAVSLEARFTISKDNTKNTVYLQMNSLKPEDTAVYYCAGTRAYGSSRLRLADTYEYWGQGTQVTVSS")
"8.65e-05"
>>> value_measured("V15 (VHH, Purified with C-terminal GGGGS-6×His; also called candidate antibody V15) VHH: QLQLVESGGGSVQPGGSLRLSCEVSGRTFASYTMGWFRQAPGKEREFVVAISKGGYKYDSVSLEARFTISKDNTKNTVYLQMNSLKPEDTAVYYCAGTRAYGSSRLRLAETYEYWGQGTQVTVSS")
"9.61e-05"
>>> value_measured("V31 (VHH, Purified with C-terminal GGGGS-6×His) VHH: QLQLVESGGGSVQPGGSLRLSCEVSGRTFASYTMGWFRQAPGKEREFVVAISKGGYKYDAVSLEARFTISKDNTKNTVYLQMNSLKPEDTAVYYCAGTRAYGSSRLRLAKTYEYWGQGTQVTVSS")
0.000172

IN: I am curious: what koff value has been reported for V40 (VHH, Purified with C-terminal GGGGS-6×His) VHH: QLQLVESGGGSVQPGGSLRLSCEVSGRTFTSYTMGWFRQAPGKEREFVVAISKGGYKYNAVSLEARFTISKDNTKNTVYLQMNSLKPEDTAVYYCAGTRAYGSSRLRLAKTYEYWGQGTQVTVSS ?
OUT: 0.000108
